target.under.test: Transitional endoplasmic reticulum ATPase (Homo sapiens)
Sequence (P55072 whole entry): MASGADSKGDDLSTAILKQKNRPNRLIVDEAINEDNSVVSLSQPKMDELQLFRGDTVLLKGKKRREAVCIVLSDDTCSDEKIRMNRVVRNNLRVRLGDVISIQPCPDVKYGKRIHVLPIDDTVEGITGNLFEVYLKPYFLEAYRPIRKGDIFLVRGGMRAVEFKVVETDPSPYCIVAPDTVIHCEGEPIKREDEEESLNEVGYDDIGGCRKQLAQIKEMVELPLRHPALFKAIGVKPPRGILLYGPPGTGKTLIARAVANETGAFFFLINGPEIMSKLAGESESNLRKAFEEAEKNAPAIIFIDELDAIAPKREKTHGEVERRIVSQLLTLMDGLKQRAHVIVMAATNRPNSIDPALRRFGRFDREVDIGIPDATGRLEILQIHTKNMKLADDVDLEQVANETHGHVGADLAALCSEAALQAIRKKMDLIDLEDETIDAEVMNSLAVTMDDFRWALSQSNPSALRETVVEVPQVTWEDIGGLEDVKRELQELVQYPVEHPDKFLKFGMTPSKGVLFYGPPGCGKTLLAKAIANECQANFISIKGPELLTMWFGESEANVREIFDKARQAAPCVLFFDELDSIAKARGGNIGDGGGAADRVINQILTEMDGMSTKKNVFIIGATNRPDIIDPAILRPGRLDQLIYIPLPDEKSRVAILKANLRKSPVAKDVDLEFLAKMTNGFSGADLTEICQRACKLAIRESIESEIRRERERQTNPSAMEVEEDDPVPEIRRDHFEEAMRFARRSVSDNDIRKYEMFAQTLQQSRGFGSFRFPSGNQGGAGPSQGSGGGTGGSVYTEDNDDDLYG
protocol: biochemical
Description: Inhibition of human full length VCP (2 to 806 residues) expressed in High5 insect cells assessed as reduction in ATPase activity by measuring ADP formation by NADH coupled assay
Each entry below carries its recorded IC50.
Give the value in µM but do not write µM after it.

Example entries begin here.
Asked: Observed IC50 on Transitional endoplasmic reticulum ATPase (Homo sapiens) for "Cc1cc(-c2cccc(Cl)c2)nc(NC[C@H]2CC[C@H](C(=O)O)CC2)n1" , please.
Given back: 4.8

Asked: Input "Cc1cc(-c2ccccc2)nc(SCc2ccc(C(=O)NS(=O)(=O)C(F)(F)F)cc2)n1"
Given back: 21.6

Asked: Now consider "NC(=O)[C@H]1CC[C@H](CNc2nc(NCc3ccc(F)cc3)cc(-c3ccccc3)n2)CC1" and answer again.
Given back: 2.43

// moving on: another record for IC50
Asked: Give recorded IC50 with Transitional endoplasmic reticulum ATPase (Homo sapiens) for the following molecule: "CC(=O)c1ccc(-c2cc(NCc3ccccc3)nc(NC[C@H]3CC[C@H](C(N)=O)CC3)n2)cc1"
Given back: 0.102
